- Tested on: Yap1 mRNA
- experiment_description: Antisense inhibition of human Yap1 in SNU-449 cells by modified oligonucleotides, single dose (Example 5, RTS36584)
- Format: cell-based
- study_conditions: Table 48; Yap1 mRNA level relative to untreated control; modified oligonucleotides targeting SEQ ID NO.: 1 and 2
- Description: Modified oligonucleotides with additional chemistry modifications were designed to target a Yap1 nucleic acid and were tested for their effect on Yap1 mRNA level in SNU-449 cells. […] After a treatment period of approximately 48 hours, RNA was isolated from the cells and Yap1 mRNA levels were measured by quantitative real-time RTPCR. […] Yap1 mRNA levels were normalized to total RNA content, as measured by RIBOGREEN®. […]
Strand notation (5' to 3'): a small letter for the sugar, then the base; units joined by * are phosphorothioate-linked, units joined directly phosphodiester-linked; [ ] holds rarer units or linkages, { } end groups; capitals alone tell only the bases. e = 2'-O-(2-methoxyethyl) (MOE); k = constrained ethyl (cEt); [5mC] = 5-methylcytosine; d = 2'-deoxy (DNA)
Measured YAP1 (% UT), listed per entry for reference.

[
  {
    "substance": "1198291 (kA*kT*kG*dG*dA*dA*dA*dT*dT*dG*dT*d[5mC]*kT*e[5mC]*kA*eT; antisense) [Compound 1198291]",
    "YAP1 (% UT)": 58
  },
  {
    "substance": "1198313 (kA*kG*k[5mC]*dA*d[5mC]*dT*dT*dT*dT*dA*d[5mC]*dA*kT*eT*kA*eG; antisense) [Compound 1198313]",
    "YAP1 (% UT)": 31
  },
  {
    "substance": "1076456 (antisense k[5mC]*kT*kT*dT*dA*dA*dA*dG*dT*dG*dT*dA*dT*kG*kT*k[5mC]) [Compound 1076456]",
    "YAP1 (% UT)": 44
  }
]

====

- experiment_description: Tolerability in Balb/c mice, plasma chemistry markers (Example 10)
- Format: in vivo
- study_conditions: male Balb/c mice, 50 mg/kg subcutaneously twice a week for four weeks, day 26
Strand notation (5' to 3'): a small letter for the sugar, then the base; units joined by * are phosphorothioate-linked, units joined directly phosphodiester-linked; [ ] holds rarer units or linkages, { } end groups; capitals alone tell only the bases. k = constrained ethyl (cEt); [5mC] = 5-methylcytosine; d = 2'-deoxy (DNA)

[
  {
    "substance": "715491 (kA*kA*k[5mC]*d[5mC]*dA*dA*d[5mC]*dT*dA*dT*dT*dA*d[5mC]*kT*kT*k[5mC]) [compound 715491]",
    "TBIL [mg/dL]": 0.11
  },
  {
    "substance": "715557 (kG*kG*kA*dA*dG*dT*dT*dA*dT*dT*d[5mC]*dA*dG*k[5mC]*kA*kG; antisense) [compound 715557]",
    "TBIL [mg/dL]": 0.28
  },
  {
    "substance": "715558 (k[5mC]*kA*kG*dG*dA*dA*dG*dT*dT*dA*dT*dT*d[5mC]*kA*kG*k[5mC]; antisense) [compound 715558]",
    "TBIL [mg/dL]": 0.16
  },
  {
    "substance": "715487 (kA*kT*kT*dA*d[5mC]*dT*dT*d[5mC]*dA*dT*dA*dG*d[5mC]*kT*kT*kA) [compound 715487]",
    "TBIL [mg/dL]": 0.13
  },
  {
    "substance": "715480 (kG*kG*kA*dA*dA*d[5mC]*d[5mC]*dA*dT*dT*dA*dT*dT*kA*k[5mC]*kT; antisense) [compound 715480]",
    "TBIL [mg/dL]": 0.15
  },
  {
    "substance": "715593 (kA*kT*kT*dT*d[5mC]*dT*dT*dT*dG*dG*d[5mC]*dA*dG*kA*kG*kA; antisense) [compound 715593]",
    "TBIL [mg/dL]": 0.11
  }
]
